These data points were gathered from patent US11229623B2.

target: human TRPV4 (Homo sapiens, UniProt Q9HBA0); construct: expressed in transfected cells; host or cells: BHK/AC9 cells transduced with BacMam virus; assay: FLIPR assay for hTRPV4 expressed in BHK cells: inhibition of Agonist Compound-induced calcium signal; assay type: cell-based; conditions: hTRPV4 in BHK/AC9 cells, FLIPR calcium signal, agonist at EC80; reported as range class; read-out: IC50
Sequence (Q9HBA0 whole entry): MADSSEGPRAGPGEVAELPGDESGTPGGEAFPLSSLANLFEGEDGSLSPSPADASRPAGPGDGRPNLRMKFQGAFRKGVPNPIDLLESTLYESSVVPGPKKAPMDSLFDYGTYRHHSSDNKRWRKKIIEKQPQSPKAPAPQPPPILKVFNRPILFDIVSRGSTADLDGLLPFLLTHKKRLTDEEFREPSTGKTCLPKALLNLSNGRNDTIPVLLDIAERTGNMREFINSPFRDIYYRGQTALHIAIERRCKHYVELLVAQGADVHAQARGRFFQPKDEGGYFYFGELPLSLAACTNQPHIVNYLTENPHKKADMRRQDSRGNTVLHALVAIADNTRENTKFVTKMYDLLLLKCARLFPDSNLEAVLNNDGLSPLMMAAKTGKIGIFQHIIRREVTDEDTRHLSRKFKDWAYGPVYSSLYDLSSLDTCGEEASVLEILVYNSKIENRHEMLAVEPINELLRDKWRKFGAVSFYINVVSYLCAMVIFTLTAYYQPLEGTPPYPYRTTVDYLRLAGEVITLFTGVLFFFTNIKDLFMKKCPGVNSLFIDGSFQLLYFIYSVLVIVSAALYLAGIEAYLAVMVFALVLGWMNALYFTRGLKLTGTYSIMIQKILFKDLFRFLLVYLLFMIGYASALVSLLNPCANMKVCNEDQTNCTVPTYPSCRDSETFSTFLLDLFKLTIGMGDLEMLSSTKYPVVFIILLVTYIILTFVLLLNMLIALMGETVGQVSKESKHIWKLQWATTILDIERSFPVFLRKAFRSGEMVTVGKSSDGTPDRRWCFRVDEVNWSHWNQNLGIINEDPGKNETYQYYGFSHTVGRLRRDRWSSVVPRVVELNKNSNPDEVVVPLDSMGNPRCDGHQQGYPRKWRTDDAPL
Would you kindly list IC50 for each of these compounds?

Return IC50 measured with human TRPV4 (Homo sapiens, UniProt Q9HBA0) given this compound: N#Cc1ccc(O[C@H]2CN(S(=O)(=O)c3ccccc3I)C[C@@]2(O)CO)cc1F [Example 119]
0.1 to 10 nM

What do you have for C#Cc1cc(C(F)(F)F)ccc1S(=O)(=O)N1C[C@H](Oc2ccc(C#N)c(F)c2)[C@](O)(CO)C1 [Example 225] ?
0.1 to 10 nM

Also check N#Cc1cc(OCC(F)(F)F)c(O[C@H]2CN(S(=O)(=O)c3ccccc3)C[C@@]2(O)CO)cc1F [Example 176]
10 to 100 nM

And the next one, N#Cc1cc(C(F)(F)F)ccc1S(=O)(=O)N1C[C@H](Oc2ccc(F)c(F)c2F)[C@](O)(CO)C1 [Example 28] ?
10 to 100 nM

How about this compound: N#Cc1ccc(O[C@H]2CN(S(=O)(=O)c3ccc(F)cn3)C[C@@]2(O)CN)cc1F [Example 242]
10 to 100 nM

Next compound: Cc1ccc(O[C@H]2CN(S(=O)(=O)c3ccc(C(F)(F)F)cc3C#N)C[C@@]2(O)CO)cc1 [Example 51]
10 to 100 nM

N#Cc1cc(OCc2ccccc2)c(O[C@H]2CN(S(=O)(=O)c3ccc(C(F)(F)F)cc3C#N)C[C@@]2(O)CO)cc1F [Example 163] , same question.
0.1 to 10 nM
